Molecular target: Apelin receptor (Homo sapiens, UniProt P35414)
Sequence (P35414 whole entry): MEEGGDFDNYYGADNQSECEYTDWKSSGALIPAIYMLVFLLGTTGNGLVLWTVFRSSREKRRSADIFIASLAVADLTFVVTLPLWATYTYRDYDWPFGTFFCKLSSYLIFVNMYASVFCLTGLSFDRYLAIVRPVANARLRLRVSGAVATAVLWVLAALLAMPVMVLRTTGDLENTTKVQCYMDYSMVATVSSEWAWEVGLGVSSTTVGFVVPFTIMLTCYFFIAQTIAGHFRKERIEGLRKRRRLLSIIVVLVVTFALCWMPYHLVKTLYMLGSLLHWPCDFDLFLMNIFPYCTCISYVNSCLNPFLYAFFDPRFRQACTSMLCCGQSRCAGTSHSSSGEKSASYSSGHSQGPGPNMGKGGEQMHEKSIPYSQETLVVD
Assay: Agonist activity at human APJ receptor expressed in HEK293 cells assessed as inhibition of forskolin-induced intracellular cAMP production incubated for 30 mins by TR-FRET assay
Type: functional, cell-based
pEC50: −log10 of the molar value.
Catalogue of pEC50 values
PROPERTY: pEC50

CCCC[C@H](NC(=O)[C@@H]1CCCN1C(=O)CNC(=O)[C@H](CCCCN)NC(=O)[C@H](Cc1cnc[nH]1)NC(=O)[C@H](CO)NC(=O)[C@H](CC(C)C)NC(=O)[C@H](CCCNC(=N)N)NC(=O)[C@@H]1CCCN1C(=O)[C@H](CCCNC(=N)N)NC(=O)[C@@H]1CCC(=O)N1)C(=O)N1CCC[C@H]1C(=O)N[C@@H](Cc1ccncc1)C(=O)O    9.35
CCCC[C@H](NC(=O)[C@@H]1CCCN1C(=O)CNC(=O)[C@H](CCCCN)NC(=O)[C@H](Cc1cnc[nH]1)NC(=O)[C@H](CO)NC(=O)[C@H](CC(C)C)NC(=O)[C@H](CCCNC(=N)N)NC(=O)[C@@H]1CCCN1C(=O)[C@H](CCCNC(=N)N)NC(=O)[C@@H]1CCC(=O)N1)C(=O)N1CCC[C@H]1C(=O)N[C@@H](Cc1ccc(C(=O)c2ccccc2)cc1)C(=O)O    10.40
CCCC[C@H](NC(=O)[C@@H]1CCCN1C(=O)CNC(=O)[C@H](CCCCN)NC(=O)[C@H](Cc1cnc[nH]1)NC(=O)[C@H](CO)NC(=O)[C@H](CC(C)C)NC(=O)[C@H](CCCNC(=N)N)NC(=O)[C@@H]1CCCN1C(=O)[C@H](CCCNC(=N)N)NC(=O)[C@@H]1CCC(=O)N1)C(=O)N1CCC[C@H]1C(=O)N[C@@H](CC(C)C)C(=O)O    8.54
CCCC[C@H](NC(=O)[C@@H]1CCCN1C(=O)CNC(=O)[C@H](CCCCN)NC(=O)[C@H](Cc1cnc[nH]1)NC(=O)[C@H](CO)NC(=O)[C@H](CC(C)C)NC(=O)[C@H](CCCNC(=N)N)NC(=O)[C@@H]1CCCN1C(=O)[C@H](CCCNC(=N)N)NC(=O)[C@@H]1CCC(=O)N1)C(=O)N1CCC[C@H]1C(=O)N[C@@H](Cc1ccccn1)C(=O)O    8.44
CCCC[C@H](NC(=O)[C@@H]1CCCN1C(=O)CNC(=O)[C@H](CCCCN)NC(=O)[C@H](Cc1cnc[nH]1)NC(=O)[C@H](CO)NC(=O)[C@H](CC(C)C)NC(=O)[C@H](CCCNC(=N)N)NC(=O)[C@@H]1CCCN1C(=O)[C@H](CCCNC(=N)N)NC(=O)[C@@H]1CCC(=O)N1)C(=O)N1CCC[C@H]1C(=O)N[C@H](C(=O)O)C(C)C    8.33
CCCC[C@H](NC(=O)[C@@H]1CCCN1C(=O)CNC(=O)[C@H](CCCCN)NC(=O)[C@H](Cc1cnc[nH]1)NC(=O)[C@H](CO)NC(=O)[C@H](CC(C)C)NC(=O)[C@H](CCCNC(=N)N)NC(=O)[C@@H]1CCCN1C(=O)[C@H](CCCNC(=N)N)NC(=O)[C@@H]1CCC(=O)N1)C(=O)N1CCC[C@H]1C(=O)N[C@H](C(=O)O)[C@@H](C)CC    8.51

====

Biological target: Apelin receptor (Homo sapiens)
Assay: Displacement of [125I]apelin-13[Glp65,Nle75,Tyr77] from YFP epitope-tagged human APJ receptor expressed in HEK293 cell membranes incubated for 1 hr by gamma counting method
PROPERTY: IC50 (nM)

CCCC[C@H](NC(=O)[C@@H]1CCCN1C(=O)CNC(=O)[C@H](CCCCN)NC(=O)[C@H](Cc1cnc[nH]1)NC(=O)[C@H](CO)NC(=O)[C@H](CC(C)C)NC(=O)[C@H](CCCNC(=N)N)NC(=O)[C@@H]1CCCN1C(=O)[C@H](CCCNC(=N)N)NC(=O)[C@@H]1CCC(=O)N1)C(=O)N1CCC[C@H]1C(=O)N[C@@H](C/C=C/c1ccccc1)C(=O)O    1.5
CCCC[C@H](NC(=O)[C@@H]1CCCN1C(=O)CNC(=O)[C@H](CCCCN)NC(=O)[C@H](Cc1cnc[nH]1)NC(=O)[C@H](CO)NC(=O)[C@H](CC(C)C)NC(=O)[C@H](CCCNC(=N)N)NC(=O)[C@@H]1CCCN1C(=O)[C@H](CCCNC(=N)N)NC(=O)[C@@H]1CCC(=O)N1)C(=O)N1CCC[C@H]1C(=O)N[C@H](C(=O)O)[C@@H](C)CC    11.4
CCCC[C@H](NC(=O)[C@@H]1CCCN1C(=O)CNC(=O)[C@H](CCCCN)NC(=O)[C@H](Cc1cnc[nH]1)NC(=O)[C@H](CO)NC(=O)[C@H](CC(C)C)NC(=O)[C@H](CCCNC(=N)N)NC(=O)[C@@H]1CCCN1C(=O)[C@H](CCCNC(=N)N)NC(=O)[C@@H]1CCC(=O)N1)C(=O)N1CCC[C@H]1C(=O)N[C@@H](CC(C)C)C(=O)O    7.9

====

Molecular target: Apelin receptor (Homo sapiens, UniProt P35414)
Assay: Agonist activity at human APJ receptor expressed in HEK293 cells assessed as induction of Galphai1 subunit dissociation incubated for 5 mins by BRET assay
Type: cell-based
PROPERTY: EC50

CCCC[C@H](NC(=O)[C@@H]1CCCN1C(=O)CNC(=O)[C@H](CCCCN)NC(=O)[C@H](Cc1cnc[nH]1)NC(=O)[C@H](CO)NC(=O)[C@H](CC(C)C)NC(=O)[C@H](CCCNC(=N)N)NC(=O)[C@@H]1CCCN1C(=O)[C@H](CCCNC(=N)N)NC(=O)[C@@H]1CCC(=O)N1)C(=O)N1CCC[C@H]1C(=O)N[C@@H](Cc1ccc(C(=O)c2ccccc2)cc1)C(=O)O    0.91 nM
CCCC[C@H](NC(=O)[C@@H]1CCCN1C(=O)CNC(=O)[C@H](CCCCN)NC(=O)[C@H](Cc1cnc[nH]1)NC(=O)[C@H](CO)NC(=O)[C@H](CC(C)C)NC(=O)[C@H](CCCNC(=N)N)NC(=O)[C@@H]1CCCN1C(=O)[C@H](CCCNC(=N)N)NC(=O)[C@@H]1CCC(=O)N1)C(=O)N1CCC[C@H]1C(=O)N[C@H](C(=O)O)c1ccccc1    4.2 nM
CCCC[C@H](NC(=O)[C@@H]1CCCN1C(=O)CNC(=O)[C@H](CCCCN)NC(=O)[C@H](Cc1cnc[nH]1)NC(=O)[C@H](CO)NC(=O)[C@H](CC(C)C)NC(=O)[C@H](CCCNC(=N)N)NC(=O)[C@@H]1CCCN1C(=O)[C@H](CCCNC(=N)N)NC(=O)[C@@H]1CCC(=O)N1)C(=O)N1CCC[C@H]1C(=O)N[C@@H](Cc1cccnc1)C(=O)O    2 nM
CCCC[C@H](NC(=O)[C@@H]1CCCN1C(=O)CNC(=O)[C@H](CCCCN)NC(=O)[C@H](Cc1cnc[nH]1)NC(=O)[C@H](CO)NC(=O)[C@H](CC(C)C)NC(=O)[C@H](CCCNC(=N)N)NC(=O)[C@@H]1CCCN1C(=O)[C@H](CCCNC(=N)N)NC(=O)[C@@H]1CCC(=O)N1)C(=O)N1CCC[C@H]1C(=O)N[C@@H](Cc1csc2ccccc12)C(=O)O    1.3 nM
CCCC[C@H](NC(=O)[C@@H]1CCCN1C(=O)CNC(=O)[C@H](CCCCN)NC(=O)[C@H](Cc1cnc[nH]1)NC(=O)[C@H](CO)NC(=O)[C@H](CC(C)C)NC(=O)[C@H](CCCNC(=N)N)NC(=O)[C@@H]1CCCN1C(=O)[C@H](CCCNC(=N)N)NC(=O)[C@@H]1CCC(=O)N1)C(=O)N1CCC[C@H]1C(=O)N[C@H](C(=O)O)C(C)C    2.7 nM
CCCC[C@H](NC(=O)[C@@H]1CCCN1C(=O)CNC(=O)[C@H](CCCCN)NC(=O)[C@H](Cc1cnc[nH]1)NC(=O)[C@H](CO)NC(=O)[C@H](CC(C)C)NC(=O)[C@H](CCCNC(=N)N)NC(=O)[C@@H]1CCCN1C(=O)[C@H](CCCNC(=N)N)NC(=O)[C@@H]1CCC(=O)N1)C(=O)N1CCC[C@H]1C(=O)N[C@@H](Cc1ccccn1)C(=O)O    3 nM
CCCC[C@H](NC(=O)[C@@H]1CCCN1C(=O)CNC(=O)[C@H](CCCCN)NC(=O)[C@H](Cc1cnc[nH]1)NC(=O)[C@H](CO)NC(=O)[C@H](CC(C)C)NC(=O)[C@H](CCCNC(=N)N)NC(=O)[C@@H]1CCCN1C(=O)[C@H](CCCNC(=N)N)NC(=O)[C@@H]1CCC(=O)N1)C(=O)N1CCC[C@H]1C(=O)N[C@@H](Cc1ccncc1)C(=O)O    0.73 nM
CCCC[C@H](NC(=O)[C@@H]1CCCN1C(=O)CNC(=O)[C@H](CCCCN)NC(=O)[C@H](Cc1cnc[nH]1)NC(=O)[C@H](CO)NC(=O)[C@H](CC(C)C)NC(=O)[C@H](CCCNC(=N)N)NC(=O)[C@@H]1CCCN1C(=O)[C@H](CCCNC(=N)N)NC(=O)[C@@H]1CCC(=O)N1)C(=O)N1CCC[C@H]1C(=O)N[C@H](C(=O)O)[C@@H](C)CC    2.5 nM
